Measured IL2 Binding (HTRF signal) of individual entries
molecular target: T1, human IL-2 (human, UniProt P60568 21-153, biotin label in the IL2RB blocking assay); experiment: HTRF
T1 construct: also called biotin-labeled IL-2 (Acro Biosystems IL2-H82E4)
T1 sequence (P60568 21-153 limits assumed): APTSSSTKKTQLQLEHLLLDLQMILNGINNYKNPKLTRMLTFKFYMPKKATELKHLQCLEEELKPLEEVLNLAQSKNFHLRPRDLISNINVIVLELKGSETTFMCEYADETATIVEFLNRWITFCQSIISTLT
# respond with the number and nothing more

Prompt: Fill in: IL2 Binding (HTRF signal) of PD1-IL2-R07-A04 (scFv) scFv: QVQLVQSGAEVKKPGASVKVSCKASGYTFTDYYMHWVRQAPGQGLEWMGIINPRAGYTSYALKFQGRVTMTRDTSTSTVYMELSSLRSEDTAVYYCTSGMDVWGQGTLVTVSSASGGGGSGGGGSGGGGSHASDIQMTQSPSSLSASVGDRVTITCRASQSISTWLAWYQQKPGKAPKLLIYAASSLQSGVPSRFSGSGSGTDFTLTISSLQPEDFATYYCQQSYSFPVTFGQGTKVEIK is ___
Response: 973

Prompt: Given PD1-IL2-R02-C03 (scFv, cell-free expressed, V5-tagged) scFv: QVQLVQSGAEVKKPGASVKVSCKASGYTFPRYHIHWVRQAPGQGLEWMGMINPSGGTTTYAQKFQGRVTMTRDTSTSTVYMELSSLRSEDTAVYYCARDTGLGYYYGSGDFDYWGQGTLVTVSSASGGGGSGGGGSGGGGSHASDIQMTQSPSSLSASVGDRVTITCRASQSISSWLAWYQQKPGKAPKLLIYAASSLQSGVPSRFSGSGSGTDFTLTISSLQPEDFATYYCQQSHSFPLTFGGGTKVEIK , state its recorded IL2 Binding (HTRF signal).
Response: 293

Prompt: I am curious: what IL2 Binding (HTRF signal) value has been reported for PD1-IL2-R02-C02 (scFv, cell-free expressed, V5-tagged) scFv: QVQLVQSGAEVKKPGVSVKVSCKASGYTFPRSYIHWVRQAPGQGLEWMGWINPHSGDTYYAQNFQGRVTMTRDTSTSTVYMELSSLRSEDTAVYYCARDTGLGYYYGSGDFDYWGQGTLVTVSSASGGGGSGGGGSGGGGSHASDIQMTQSPSSLSASVGDRVTITCRASQSISRYLNWYQQKPGKAPKLLIYTASSLQSGVPSRFSGSGSGTDFTLTISSLQPEDFATYYCQQANRFPLTFGPGTKVDIK ?
Response: 298
